B1: TPR t1 (parent)
chain: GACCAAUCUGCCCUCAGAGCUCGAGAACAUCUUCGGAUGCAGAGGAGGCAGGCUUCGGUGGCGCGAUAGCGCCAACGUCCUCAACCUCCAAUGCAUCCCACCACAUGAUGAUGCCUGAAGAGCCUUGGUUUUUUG

- Variants of: B1
- ASSAY SUMMARY: polymerase ribozyme fitness, log enrichment relative to wild type (log ratio); higher = more active; in vitro selection for triplet polymerase activity
polymerase ribozyme fitness (log ratio) for assorted variants
Field format: numeric only.

The following variants have reported results that may help.
{"VARIANT SPEC": "U55G A121C", "polymerase ribozyme fitness (log ratio)": 0.81}
{"VARIANT SPEC": "G47U G77U", "polymerase ribozyme fitness (log ratio)": -2.07}
{"VARIANT SPEC": "C11U C22G C40U", "polymerase ribozyme fitness (log ratio)": -3.22}
{"VARIANT SPEC": "C13U U21C C64U", "polymerase ribozyme fitness (log ratio)": -0.0953}
{"VARIANT SPEC": "U87A U112A", "polymerase ribozyme fitness (log ratio)": 1.76}
{"VARIANT SPEC": "C79G G120A U130C", "polymerase ribozyme fitness (log ratio)": -1.26}

Dear colleague, I am looking for the recorded polymerase ribozyme fitness (log ratio) of the following variant: C94U C104U
-0.577

Dear colleague, I am looking for the recorded polymerase ribozyme fitness (log ratio) of the following variant: G17A G69U U81A U116A
-2.91

Dear colleague, I am looking for the recorded polymerase ribozyme fitness (log ratio) of the following variant: C53U C85U
-1.78

Dear colleague, I am looking for the recorded polymerase ribozyme fitness (log ratio) of the following variant: U9C U125A
0.386

Dear colleague, I am looking for the recorded polymerase ribozyme fitness (log ratio) of the following variant: A16U C28U C76G C82U U116A
-3.83

Dear colleague, I am looking for the recorded polymerase ribozyme fitness (log ratio) of the following variant: U59C G93A
-1.47

Dear colleague, I am looking for the recorded polymerase ribozyme fitness (log ratio) of the following variant: C3U A6C C13A
-3.09

Dear colleague, I am looking for the recorded polymerase ribozyme fitness (log ratio) of the following variant: A37C A118U
0.469

Dear colleague, I am looking for the recorded polymerase ribozyme fitness (log ratio) of the following variant: U59G C99U U106A
-1.43

Dear colleague, I am looking for the recorded polymerase ribozyme fitness (log ratio) of the following variant: C70G A83G
-4.15

Dear colleague, I am looking for the recorded polymerase ribozyme fitness (log ratio) of the following variant: C12U A50C C64U A66G U81C
-4.8

Dear colleague, I am looking for the recorded polymerase ribozyme fitness (log ratio) of the following variant: C4U C70A C85G C86U
-3.72

Dear colleague, I am looking for the recorded polymerase ribozyme fitness (log ratio) of the following variant: C40U G52C G117C
-6.09

Dear colleague, I am looking for the recorded polymerase ribozyme fitness (log ratio) of the following variant: U59C G128U
-2.04

Dear colleague, I am looking for the recorded polymerase ribozyme fitness (log ratio) of the following variant: A6U C22A C40A G61U
-5.59

Dear colleague, I am looking for the recorded polymerase ribozyme fitness (log ratio) of the following variant: C13U A46U
-0.902

Dear colleague, I am looking for the recorded polymerase ribozyme fitness (log ratio) of the following variant: G69U G71U
-0.811

Dear colleague, I am looking for the recorded polymerase ribozyme fitness (log ratio) of the following variant: A2U A5G C12U U112G
-1.79

Dear colleague, I am looking for the recorded polymerase ribozyme fitness (log ratio) of the following variant: U112G C124U
0.835

Dear colleague, I am looking for the recorded polymerase ribozyme fitness (log ratio) of the following variant: G63U C85A G128A
-4.29

Dear colleague, I am looking for the recorded polymerase ribozyme fitness (log ratio) of the following variant: A24C G36U A37U G42U G61A C79A G110C C123U
-7.34
